Measured Max response ± SEM of individual entries
- System: Acinetobacter baumannii ATCC 19606
- Measurement Protocol: Antimicrobial growth inhibition (CO-ADD)
- Assay type: cell-based
- Condition Set: percentage growth inhibition, absorbance at 600 nm; mean ± SEM
Where no end group is shown, it is not given here.
Give the figure only, with no unit attached.

Example entries begin here.
# Substance, Max response ± SEM
measured = [
    ("ALWDTIKKWVAKVLPLVKNALK-NH2 [Rm20a]", 100),
    ("LWPFLISLIPTVIDLARNL-NH2 [Rm54a]", 22),
    ("RNVPRWFTPRL-NH2 [Rm52d]", 5),
    ("FIGGLIKFIAKFVPKILPFFQKKN-OH [Rm34a]", 100),
    ("ILPALIPVFASLLPWAIKKF-NH2 [Rm55b]", 98),
]

Answer with reported Max response ± SEM of VAPIVAMAGLGLFAAAVAGLDWLSKKV-NH2 [Rm1a]
3

Answer with reported Max response ± SEM of FLPFLIPVIASLVSSLK-NH2 [Rm55a]
24

Reference source for all entries: paper PMC9827630
